Origin of measurements: PubChem BioAssay AID648

# METHOD NOTES: endothelial cell growth inhibition – HUVEC, 384-well, primary screen (AID 648);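 note: 100% = median luminescence of DMSO-only cell control wells on each plate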
# CONDITION SUMMARY: HUVEC proliferation, CellTiter-Glo luminescence, 72 h; stronger effect = lower value; screened at 10 µM (by protocol)
Among all 86,000 compounds or so, about 920 (1.1%) were called active. The sample as a whole holds a higher share of actives than the screen did.
QUANTITY MEASURED: viability

viability recorded for this molecule, C=CCn1c(SCC(=O)/C(C#N)=C(\C)N)nc2sc(C)c(C)c2c1=O , is 28% (active)

For record COc1ccccc1-c1nc(C#N)c(N2CCC(C(N)=O)CC2)o1 the listed viability is 95.4% (inactive)

Entry CCOc1ccc(Nc2oc(Cc3ccccc3)nc2C#N)cc1 , viability reported as 104% (inactive)

Field viability (entry CCCn1c(=O)c2ccccc2n2c(SCC(=O)/C(C#N)=C(\C)N)nnc12 ) reads 83.6% (inactive)

Looking up CN=C1SC(CC(=O)Nc2ccc(C(=O)O)cc2)C(=O)N1C (stereo unspecified) , I see its viability listed as 88% (inactive)

What the record says about CCn1nnnc1SCC(=O)c1ccc(C)cc1C : viability is 92.1% (inactive)

Documented viability of FC(F)(F)c1nnc2ccc(N3CCN(c4ccccc4)CC3)nn12 : 85.4% (inactive)

Form: molecule = COc1ccccc1-n1nnnc1S(=O)(=O)Cc1ccc(Cl)cc1 ; viability = 11.8% (active)

Lab book: viability of COc1ccccc1N1CCN(C(=O)CN(Cc2ccc(Cl)cc2)S(C)(=O)=O)CC1 noted as 109% (inactive)

Lab note: COC(=O)c1[nH]c2ccc(Br)cc2c1NC(=O)Oc1ccccc1 gave viability of 86.1% (inactive)

Form field viability, entry COc1ccccc1N1CCN(Cc2nnnn2CCc2ccccc2)CC1 : 100% (inactive)

====

# METHOD NOTES: endothelial cell growth inhibition – HUVEC, 384-well, primary screen (AID 648);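 note: 100% = median luminescence of DMSO-only cell control wells on each plate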
# CONDITION SUMMARY: HUVEC proliferation, CellTiter-Glo luminescence, 72 h; stronger effect = lower value; screened at 10 µM (by protocol)
The campaign covered roughly 86,000 compounds. About 920 (1.1%) were called active. For the sample, actives were picked, then their nearest neighbours and some compounds at random.
What viability was measured for each of the following?
Please respond with the number in % and leave the unit unwritten.

Record O=C1c2ccccc2C(=O)N1CCCc1nc(-c2ccccc2)no1 , field viability: 111

Entry CCN(c1ccccc1)S(=O)(=O)c1ccc(C(=O)Nc2nccs2)cc1 — recorded viability = 104

Item: N#CCSc1nc2c(c(=O)n1Cc1ccccc1)C1(CCCC1)Cc1ccccc1-2 | viability: 101

viability reported for this compound O=C(CSCc1c(F)cccc1Cl)NCC1CCCO1 (stereo unspecified) : 101

Reported viability of COn1c(=O)c(=O)n(OC)c2ccccc21 : 105

Data point: CC(C)(C)c1cc(=O)n2c(nc3ccccc32)[nH]1 ; viability = 103

====

# METHOD NOTES: endothelial cell growth inhibition – HUVEC, 384-well, primary screen (AID 648);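 note: 100% = median luminescence of DMSO-only cell control wells on each plate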
# CONDITION SUMMARY: HUVEC proliferation, CellTiter-Glo luminescence, 72 h; screened at 10 µM (by protocol)
In all, about 86,000 compounds went through this assay and about 920 (1.1%) were called active.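 The calls were made as follows: active = viability at or below 30%; inactive = viability above 30%.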 Only a selection was taken, and actives are over-represented in it overall.
Give one outcome, nothing more. List: 1 = active, 0 = inactive

Exercise: // outcome(item) with item = CCc1cc(=O)oc2cc(OCC(=O)N3CCCc4ccccc43)ccc12
Key: 0

Exercise: Recorded call for Cc1nc(SCC(=O)Nc2cc(C)on2)c2c3c(sc2n1)CCCC3 ?
Key: 0

Exercise: Returns: the outcome recorded for CCNS(=O)(=O)c1ccc(NC(=O)Nc2cccc(C(F)(F)F)c2)cc1 in this assay.
Key: 1

Exercise: Can you look up the reported call for CC(C)c1cc(C(=O)O)n[nH]1 for me?
Key: 0

Exercise: For CCNS(=O)(=O)c1ccc(NC(=O)Nc2cccc(OC)c2)cc1 , what call appears in the results of this test?
Key: 0

Exercise: Query: recorded result category for CCn1c(SCC(=O)Nc2ccc(S(=O)(=O)Nc3onc(C)c3C)cc2)nnc1-c1ccccc1 in this test
Key: 0

Exercise: Please share the test call associated with O=C(COc1ccc(S(=O)(=O)NCc2ccccc2)cc1)N1CCOCC1 .
Key: 0

Exercise: For this molecule, state the assay outcome: COc1cccc2c1OCC1COc3c(c(=O)n(C)c(=O)n3C)C21 (stereo unspecified)
Key: 0

Exercise: Answer briefly: the call reported for Cc1cc(=O)oc2cc(OCC3CC(c4ccccc4Cl)=NO3)ccc12 (stereo unspecified) in this assay.
Key: 0

Exercise: What outcome does the record of this test show for c1ccc2c(c1)C(=NC1CCCCC1)NC2=NC1CCCCC1 ?
Key: 1

Exercise: How was COc1nc(NC2CCCCC2)nc(N2CCCCCC2)n1 classified in this test?
Key: 0

====

# METHOD NOTES: endothelial cell growth inhibition – HUVEC, 384-well, primary screen (AID 648);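 note: 100% = median luminescence of DMSO-only cell control wells on each plate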
# CONDITION SUMMARY: HUVEC proliferation, CellTiter-Glo luminescence, 72 h; screened at 10 µM (by protocol)
Among all 86,000 compounds or so, about 920 (1.1%) were called active.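 How the source made its calls: active means viability at or below 30%; inactive means viability above 30%.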 Shown is part of a subset that was picked to be rich in actives.
In this exercise, the only acceptable responses are active, inactive

Exercise: Which outcome was entered for the compound Cc1cccc(Nc2ccccc2C(=O)NCc2ccco2)c1C in this test?
Key: inactive

Exercise: Assay outcome for CCCc1nc(NCc2ccc3c(c2)OCO3)c2nnn(Cc3ccccc3Cl)c2n1 : what was it?
Key: inactive

Exercise: Can you look up the reported call for O=C1CCCc2c1[nH]c1ccc(Br)cc21 for me?
Key: active

Exercise: // outcome(item) with item = CCCCCCNC(=O)CSc1nccn1Cc1ccccc1
Key: inactive

Exercise: // param item: C=C(C)COc1ccc(-c2n[nH]c(C)c2-c2ccccc2)c(O)c1 ; yields the recorded call
Key: inactive

Exercise: What is the recorded call for this compound in the test? CCn1nc(C)c(NC(=O)/C=C/c2ccc(OC)c(COc3ccc(Br)cc3)c2)c1C
Key: active

Exercise: State the result this test recorded for CCc1c(-c2ccccc2)nc(N)c(C#N)c1-c1cccs1 .
Key: inactive

Exercise: How did this test come out for CC(C)(C)C1CCc2c(sc3nc(SCC(N)=O)nc(N)c23)C1 (stereo not drawn) ?
Key: inactive

Exercise: Test call for this compound, please: CCOC(=O)c1cnc(SCC(=O)Nc2cccc(OC)c2)nc1N
Key: inactive

Exercise: Outcome? COc1ccc(-c2nnc(SCC(=O)c3ccco3)n2-c2ccccc2)cc1
Key: inactive

Exercise: Could you please tell me the result logged for COc1ccc(/C=C/C(=O)Nc2c(C)nn(C)c2C)cc1COc1ccc(Br)cc1 in this assay?
Key: inactive

Exercise: Test call for this compound, please: CN1CCN(CC(=O)Nc2sc3c(c2C#N)CCC(C(C)(C)C)C3)CC1 (stereo not drawn)
Key: active

Exercise: What was the test verdict on Cc1c(C=O)c2ccccn2c1C(=O)c1ccncc1 ?
Key: inactive

Exercise: State the result this test recorded for N#Cc1c(NC(=O)CSc2nc3ccccc3c(=O)n2Cc2ccco2)sc2c1CCCC2 .
Key: inactive

Exercise: Fill in: this test's call for CCCOc1ccc(N2C(=O)CC(N(CCc3ccc(S(N)(=O)=O)cc3)C(C)=O)C2=O)cc1 (stereo not drawn) is ___
Key: inactive

Exercise: # lookup: test call for OCCNc1nc2ccccc2n1-c1ncnc2sc3c(c12)CCC3
Key: active

Exercise: Recorded test outcome, item O=C(O)CSc1nccn1-c1cccc(Cl)c1
Key: inactive

Exercise: I would be grateful if you could indicate the recorded call for Oc1ccc2ccc3cccc[n+]3c2c1 .
Key: inactive

Exercise: Recorded test outcome, item CCn1c(COc2ccc(OC)cc2)nnc1SCC(=O)Nc1cc(OC)ccc1OC
Key: inactive

Exercise: // outcome(item) with item = O=C(Nc1ccccc1)c1ccc2c(c1)OCO2
Key: inactive

Exercise: // return assay outcome for CC1(C)NC(=O)N(CCCCSc2ccc(Cl)cc2)C1=O
Key: inactive

Exercise: In this assay, the call recorded for COc1ccc(-c2n[nH]c(C)c2-c2ccc(OC)c(OC)c2)c(O)c1 was what?
Key: inactive

Exercise: # fetch the recorded call for Cc1nc(Nc2ccc3c(c2)OCCO3)c2nnn(Cc3ccccc3Cl)c2n1 here
Key: active

====

Could you please report measured viability for the items listed next?
# METHOD NOTES: endothelial cell growth inhibition – HUVEC, 384-well, primary screen (AID 648);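 note: 100% = median luminescence of DMSO-only cell control wells on each plate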
# CONDITION SUMMARY: HUVEC proliferation, CellTiter-Glo luminescence, 72 h; stronger effect = lower value; screened at 10 µM (by protocol)
In all, about 86,000 compounds went through this assay and about 920 (1.1%) were called active. The full list was thinned out, with actives kept by preference.
# output: bare number, implied unit %

Record COC(=O)C(C(=O)Nc1cccc(C)n1)C1CCCCCC1 (stereo not given) , field viability: 88.7

// viability value for COC(=O)c1c(C)c(C)nc(N)c1C#N : 104

# viability of CCCC1(C(=O)OCC)NC(c2ccc(N(C)C)cc2)C2C(=O)N(c3ccc4c(c3)OCCO4)C(=O)C21 (stereo not given) = 104

// viability value for Cc1[nH][nH]c(=O)c1C(c1ccc(-c2ccc(Cl)cc2)o1)c1c(C)[nH][nH]c1=O : 24

// viability lookup, compound = O=C(NCC1CCCO1)c1ccc2ccccc2n1 (stereo not given) , result: 89.6

For reference, reported viability for O=C(Nc1cccc(NC(=O)c2ccco2)c1)c1cnccn1 stands at 83.6

Record COc1ccc(-c2cn(-c3ccc(C)cc3)c(=O)n2CC(=O)Nc2ccc(OC)c(OC)c2)cc1 . Reported viability: 92.4

Per the record, O=C(NCc1ccccc1)C1CCCN(S(=O)(=O)c2cccs2)C1 (stereo not given) has viability of 93

Lab note: measured viability of COc1cccc(-c2nnc(NC(=O)c3ccc(S(=O)(=O)N(CC(C)C)CC(C)C)cc3)o2)c1 was 23.6

The recorded viability for entry Cc1nc2c(-c3ccccc3)c(C)[nH]n2c(=O)c1Cl equals 12
